Target: RSV prefusion F (preF), DS-Cav1 stabilized trimer, subtype A (Respiratory Syncytial Virus, subtype A, UniProt P03420 26-513)
Experiment: BLI, apparent IgG KD (Table 9A)
Measured Metric: Kd (nM)
Reply numerically in nM, unit not repeated.

**Query** Provide one value: measured Kd of ADI-41302 (antibody, V domains shown) VH: QVQLVESGGGVVQPGRSLRLSCAASGFTFSSYAMQWVRQAPGKGLEWVAVMTNDGDDKYYADSVRGRFTISRDNSKNTLYLQMNNLRPEDTAVYYCARDLFEWWELLGYCYAMDVWGQGTTVTVSS VL: QSVLTQPPSASGSPGQSVTISCTGTSSDVGAYNYVSWYQQHPGKAPKLIIYEVYKRPSGVPDRFFGSKSGNTASLTVSGLQAEDEADYYCSSYAGSNTLGVFGGGTKVTVL
**Result** 0.65

**Query** Provide one value: measured Kd of ADI-20974 (antibody, V domains shown) VH: EVQLVESGGGLVKPGGSLRLSCAASGFSFSSYQINWVRQAPGKGLEWVSSISGGSSYTDYADSIKGRFTISRDNAKKSAFLQMKSLRADDTAVYYCARALMATAGGLAFDIWGQGTMVTVSS VL: QPVLTQPPSVSGAPGQRVTISCTGSGSNIGAGYDVHWYQQVPGTAPKLLILRNTNRPSGVPDRFSGSKSGTSASLAITGLQAEDEADYYCQSYDRSLSVVFGGGTKLTVL
**Result** 0.29

**Query** Provide one value: measured Kd of ADI-41256 (antibody, V domains shown, also called Ab 578; Antibody Number 578) VH: QVQLVQSGAEVKSPGSSATVSCKASGGTFGSYGISWVRQAPGQGLEWIGAIMPMFGTTNYAQKFQGRVTMTADESTSTVYMDVSSLRPDDTAVYYCVRDVFYDILTGYYDADYYHHYMDVWGKGTTVTVSS VL: DIVMTQSPLSLPVTLGQPASISCRSGQSLVHSDGNTYLNWFQQRPGQSPRRLIYKVSNRGSGVPDRFSGSGSGTDFTLKISRVEAEDVGVYFCMQGTHWPRTFGQGTKVDIK
**Result** 0.35

**Query** Provide one value: measured Kd of ADI-36676 (antibody, V domains shown, also called Ab 832; Antibody Number 832) VH: EVQLLESGGGVVQPGRSLRLSCAASGFSFRNYDMHWVRQAPGKGLEWVAIISYDGSNKYADSVKGRFTISRDTSKNTLYLQMNSLRVEDTAVYYCARADSSGYYKGSEYFQHWGQGTLVTVSS VL: SYELTQLPSVSVAPGQTARITCGGNNIGTKSVQWYQHKPGQAPVLVVYDDSDRPSDIPERFSGSNSGNTATLTISRVEAGDEADYYCQVWDSSSDHYVFGTGTKLTVL
**Result** 0.28

**Query** Provide one value: measured Kd of ADI-41221 (antibody, V domains shown) VH: EVQLLESGGGLVKPGGSLRLSCAASGFTFSDYTMNWVRQAPGKGLEWVSSISITSSHIYYADSVKGRFTISRDNAKNSLYLQINSLRAEDTAAYYCARELGFASSSYSYYYGMDVWGQGTTVTVSS VL: QSALTQPRSVSGSPGQSVTISCTGTSSDVGDYNSVSWYQQHPGTAPKLIIFDVTQRPSGVPDRFSGSKSANTASLTISGLQPEDEADYYCCSFAGNYVFGTGTKVTVL
**Result** 0.3

These measurements were taken from patent US20260258115A1.
